- system-under-test: T1, rat NPRA (rat, UniProt P18910 29-1057)
- T1 sequence (looked up): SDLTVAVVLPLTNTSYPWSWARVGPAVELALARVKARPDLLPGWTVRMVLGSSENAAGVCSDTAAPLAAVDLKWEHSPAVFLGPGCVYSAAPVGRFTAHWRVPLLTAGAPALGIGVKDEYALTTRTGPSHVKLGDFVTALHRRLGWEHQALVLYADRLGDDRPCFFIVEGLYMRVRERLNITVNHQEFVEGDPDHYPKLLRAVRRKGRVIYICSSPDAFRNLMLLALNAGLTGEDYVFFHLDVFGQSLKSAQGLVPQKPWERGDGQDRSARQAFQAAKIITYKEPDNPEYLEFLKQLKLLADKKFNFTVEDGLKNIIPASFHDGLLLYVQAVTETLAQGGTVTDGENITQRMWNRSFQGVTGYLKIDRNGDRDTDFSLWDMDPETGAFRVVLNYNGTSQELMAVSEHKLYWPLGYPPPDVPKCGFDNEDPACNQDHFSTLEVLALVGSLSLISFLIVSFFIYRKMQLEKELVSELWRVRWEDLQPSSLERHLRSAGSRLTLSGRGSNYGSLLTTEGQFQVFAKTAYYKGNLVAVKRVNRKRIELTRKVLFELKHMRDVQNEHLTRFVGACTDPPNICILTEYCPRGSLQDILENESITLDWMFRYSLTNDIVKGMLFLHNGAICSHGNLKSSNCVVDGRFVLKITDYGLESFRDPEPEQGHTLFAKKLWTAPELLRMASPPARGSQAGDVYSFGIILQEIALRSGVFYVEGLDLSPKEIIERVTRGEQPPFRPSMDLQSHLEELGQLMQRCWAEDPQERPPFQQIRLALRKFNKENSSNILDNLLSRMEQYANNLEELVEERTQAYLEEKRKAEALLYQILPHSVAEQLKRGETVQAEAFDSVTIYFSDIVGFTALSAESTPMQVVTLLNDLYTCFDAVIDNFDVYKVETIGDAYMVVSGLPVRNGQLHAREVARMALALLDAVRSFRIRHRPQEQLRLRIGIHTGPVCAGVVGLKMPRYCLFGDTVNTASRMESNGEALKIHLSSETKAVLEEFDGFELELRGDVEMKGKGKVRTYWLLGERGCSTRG
- method-summary: cell-based or functional assay
Numbered stars: 1 amine (or outer) side, 2 acyl side, 3 side chain; on linkers, the order of the positions; unused ones are H or OH. Bridge positions count the residues as written; N and C are the ends. Square brackets hold non-standard residues; d marks the D form. Ends that are not written are not given here. * marks the point of attachment. thioacetal = thioacetal linkage between two cysteines (intrachain bond at the bracketed Cys); C20 diacid = O=C(O)CCCCCCCCCCCCCCCCCCC(=O)*; γGlu = O=C(O)[C@H](CCC(=O)[*:2])N[*:1]; 4Pal = N[C@@H](Cc1ccncc1)C(=O)O; βAla = NCCC(=O)O
Recorded measurements of cGMP Assay (EC50, pM) w/Casein, one per entry
Write the figure, then the unit, nothing else.

Check out these entries, answers already filled in.
{"binder": "{C20 diacid}-[γGlu]EKEKEKGEK[βAla]RSSCFGGRIDRIGHYSGLGCPSFRHGGKSSGAPPPS-NH2 (bridge 15-31 via thioacetal) [Example 76]", "cGMP Assay (EC50, pM) w/Casein": "8280 pM"}
{"binder": "XEKEKEKGSXRRSSCFGGRIDRIGHQSGLGCPSFRHGGPSSGAPPPS (HOOC-(CH2)18-CO-(γGlu)-EKEKEKGS-4Pal-RRSS[CFGGRIDRIGHQSGLGC]PSFRHGGPSSGAPPPS-NH2; thioacetal linkage between the bracketed Cys) [Example 2]", "cGMP Assay (EC50, pM) w/Casein": "14100 pM"}
{"binder": "EK[βAla]RSSCFGKRIDRIGHQSGLGCPSFRHGGKSSGAPPPS-NH2 (bridge 7-23 via thioacetal; not fully specified (N-terminus)) [Example 90]", "cGMP Assay (EC50, pM) w/Casein": "13200 pM"}

State the recorded cGMP Assay (EC50, pM) w/Casein for this entry: {C20 diacid}-[γGlu]EKEKEKGS[4Pal]RRSSCFGGRIDRIGHQSGLGCPSFRHRITAREDKQGEA-NH2 (disulfide 15-31) [Example 26]
803 pM

State the recorded cGMP Assay (EC50, pM) w/Casein for this entry: SXRRSSCFGGRIDRIGHYSGLGCPSFRHGGKSSGAPPPS (HOOC-(CH2)18-CO-(γGlu)-EKEKEKG-(AEEA)8-S-4Pal-RRSS[CFGGRIDRIGHYSGLGC]PSFRHGGKSSGAPPPS-NH2; thioacetal linkage between the bracketed Cys) [Example 91]
16200 pM

Origin of measurements: patent US20240174727A1
